// values below are reported Mean % WT Binding
Target: human CD33 variant P48V (human, UniProt P20138 18-364)
Sequence (P20138 18-364 P48V limits assumed): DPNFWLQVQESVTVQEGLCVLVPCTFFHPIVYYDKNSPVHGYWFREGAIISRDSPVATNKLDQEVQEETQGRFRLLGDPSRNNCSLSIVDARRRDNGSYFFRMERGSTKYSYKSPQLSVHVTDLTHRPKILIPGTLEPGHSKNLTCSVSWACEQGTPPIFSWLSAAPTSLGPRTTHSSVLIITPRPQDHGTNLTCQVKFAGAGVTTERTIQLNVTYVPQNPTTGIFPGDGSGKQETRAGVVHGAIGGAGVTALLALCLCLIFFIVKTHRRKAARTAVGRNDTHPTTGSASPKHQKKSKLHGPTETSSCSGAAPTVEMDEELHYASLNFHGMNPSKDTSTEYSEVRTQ
Test: flow cytometry, IgG on cells expressing the mutant

Known results for binders:
binder="Refmab #4 (antibody, human IgG1, V domains shown, Tested in IgG format; human IgG1 Fc silent (PG-LALA)) VH: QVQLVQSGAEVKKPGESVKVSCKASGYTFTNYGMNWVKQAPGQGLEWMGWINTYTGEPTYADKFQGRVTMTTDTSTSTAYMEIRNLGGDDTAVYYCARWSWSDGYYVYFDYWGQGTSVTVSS VL: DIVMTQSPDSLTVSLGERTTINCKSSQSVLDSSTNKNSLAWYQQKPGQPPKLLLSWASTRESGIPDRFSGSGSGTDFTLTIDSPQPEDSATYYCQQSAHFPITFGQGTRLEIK" recorded_value="88.5 % of WT"
binder="Refmab #2 (antibody, human IgG1, V domains shown, Tested in IgG format; human IgG1 Fc silent (PG-LALA)) VH: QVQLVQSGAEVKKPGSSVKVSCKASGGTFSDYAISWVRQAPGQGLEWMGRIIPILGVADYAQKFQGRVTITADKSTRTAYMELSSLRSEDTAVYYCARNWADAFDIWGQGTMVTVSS VL: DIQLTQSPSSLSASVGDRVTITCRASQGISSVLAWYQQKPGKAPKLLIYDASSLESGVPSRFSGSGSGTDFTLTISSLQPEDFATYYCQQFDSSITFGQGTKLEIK" recorded_value="79.5 % of WT"
binder="Refmab #3 (antibody, human IgG1, V domains shown, Tested in IgG format; human IgG1 Fc silent (PG-LALA)) VH: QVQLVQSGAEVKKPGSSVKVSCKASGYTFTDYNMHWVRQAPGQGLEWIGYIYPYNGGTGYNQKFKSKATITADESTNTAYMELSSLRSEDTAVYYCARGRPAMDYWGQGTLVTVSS VL: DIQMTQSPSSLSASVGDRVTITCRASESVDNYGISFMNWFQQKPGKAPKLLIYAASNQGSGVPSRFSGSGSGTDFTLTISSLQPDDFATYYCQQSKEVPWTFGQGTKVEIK" recorded_value="113 % of WT"

Please look at the following binder next.
Query: Supply measured Mean % WT Binding of Refmab #1 (antibody, human IgG1, V domains shown, Tested in IgG format; human IgG1 (Absolute Antibody hP67.6, Cat. No. Ab00283-10.0); also called hP67.6) VH: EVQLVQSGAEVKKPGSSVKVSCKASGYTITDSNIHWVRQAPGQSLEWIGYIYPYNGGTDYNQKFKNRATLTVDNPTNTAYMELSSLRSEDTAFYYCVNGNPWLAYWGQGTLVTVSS VL: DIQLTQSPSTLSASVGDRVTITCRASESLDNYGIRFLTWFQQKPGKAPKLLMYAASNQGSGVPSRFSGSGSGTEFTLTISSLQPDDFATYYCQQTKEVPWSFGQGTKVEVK in your reply.
Response: 121 % of WT
